Kd values for the binders below.
# measured-on: T1, biotin-labeled DsbA (UniProt P0AEG4 20-208, limits assumed, biotin-labeled)
# T1 sequence (looked up): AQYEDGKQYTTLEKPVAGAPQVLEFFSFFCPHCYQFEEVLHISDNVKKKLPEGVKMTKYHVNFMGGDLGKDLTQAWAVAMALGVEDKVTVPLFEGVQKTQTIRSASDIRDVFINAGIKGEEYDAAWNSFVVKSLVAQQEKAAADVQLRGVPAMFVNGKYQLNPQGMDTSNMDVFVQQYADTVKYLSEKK
# assay-explanation: SPR, Biacore X100, biotin-DsbA on streptavidin chip, peptide as analyte
No end group written: not given here.
Answer with a number only, understood to be in nM.

[[record]]
binder = "SIIGMCYKKDPS-NH2 [SIIGMCYKKDPS-NH2]"
reported_measurement = 188

[[record]]
binder = "DFWHGETCKVTQFDQ-NH2 [DFWHGETCKVTQFDQ-NH2]"
reported_measurement = 84


Req: Value lookup for Kd; key = WQYENWAITKWQCVK-NH2 [WQYENWAITKWQCVK-NH2]
Resp: 83

Req: Value lookup for Kd; key = VIGQCLKN-NH2 [VIGQCLKN-NH2]
Resp: 623

Req: Value lookup for Kd; key = VIVGQCLKK-NH2 [VIVGQCLKK-NH2]
Resp: 622

Every entry's value here was drawn from patent US20220243360A1.
